Tested on: Giardia intestinalis
Assay: The compound was tested in vitro against the protozoa Giardia lamblia, for the inhibition of tubulin polymerization in rat brain
Format: functional
Settings: Giardia duodenalis

Molecular string	Measurement target	IC50
Cc1nc2cc(Cl)c(Cl)cc2[nH]1	Giardia intestinalis	65 nM
CSc1nc2ccccc2[nH]1	Giardia intestinalis	45 nM
COC(=O)Nc1nc2ccccc2[nH]1	Giardia intestinalis	57 nM
Cc1nc2cc(Cl)ccc2[nH]1	Giardia intestinalis	156 nM
Sc1nc2ccccc2[nH]1	Giardia intestinalis	40 nM
Cc1nc2ccccc2[nH]1	Giardia intestinalis	317 nM
Nc1nc2ccccc2[nH]1	Giardia intestinalis	1900 nM
c1ccc2[nH]cnc2c1	Giardia intestinalis	8 nM
